# test_system: matriptase (Homo sapiens, UniProt Q9Y5Y6)
# Construct: purchased R&D Systems 3946-SE-010
# Sequence (Q9Y5Y6 615-855 limits assumed): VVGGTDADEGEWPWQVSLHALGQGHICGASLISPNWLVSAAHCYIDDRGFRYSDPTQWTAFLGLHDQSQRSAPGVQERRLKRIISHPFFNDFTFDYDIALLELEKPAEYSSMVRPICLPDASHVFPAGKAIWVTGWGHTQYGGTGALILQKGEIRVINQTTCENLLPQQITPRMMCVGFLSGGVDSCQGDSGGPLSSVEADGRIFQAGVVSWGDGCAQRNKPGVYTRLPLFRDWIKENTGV
# test_protocol: Fluorescent kinetic enzyme assay of matriptase activity (Boc-QAR-AMC)
# Assay type: biochemical
# recorded_conditions: Table 2; read-out: Matriptase (IC50 nM)
Starred links: 1 amine or outer side, 2 acyl side, 3 side chain; linkers in the order of their positions; H or OH if unused. Positions of bridges follow the written chain, without caps; N, C: chain ends. Non-standard residues stand in square brackets, D forms with d. Residues, ends and D or L forms follow the SMILES beside them. X6 = N=C(N)NCCC[C@H](N[*:1])C(=O)c1nc2ccc(C(=O)[*:2])cc2s1
Hi there, I'd appreciate the recorded IC50 for every entry that follows.
I'd appreciate it if you included the unit after the number.

Some compounds with known IC50 results, for comparison:
- CC(=O)N[C@H]1Cc2ccc(cc2)OCCCC[C@@H](C(=O)N[C@@H](CCCNC(=N)N)C(=O)c2nc3ccccc3s2)NC(=O)[C@H](CC(C)C)NC1=O: 7.76 nM
- CC(=O)N[C@H]1CC(=O)N(C)CCCC[C@@H](C(=O)N[C@@H](CCCNC(=N)N)C(=O)c2nc3ccccc3s2)NC(=O)[C@H](CC(C)C)NC1=O [VD4192C2]: 23.5 nM
- CC(=O)N[C@H]1CC(=O)NCCCC[C@@H](C(=O)N[C@@H](CCCNC(=N)N)C(=O)c2nc3ccc(C(=O)N[C@@H](C(N)=O)C(C)C)cc3s2)NC(=O)[C@H](CC(C)C)NC1=O [VD3056] (Ac-DLK[X6][dV]-NH2; lactam 1-3): 11.2 nM
- CC(=O)N[C@H]1CCCCNC(=O)CC[C@@H](C(=O)N[C@@H](CCCNC(=N)N)C(=O)c2nc3ccccc3s2)NC(=O)[C@H](CC(C)C)NC1=O: 4.4 nM
- CC(=O)N[C@H]1CCCCn2cc(nn2)C[C@H](C(=O)N[C@H](CCCNC(=N)N)C(=O)c2nc3ccccc3s2)NC(=O)[C@H](CC(C)C)NC1=O [VD4118B]: 91.2 nM

What does the data say about its IC50? Entry: `CC(C)C[C@@H]1NC(=O)[C@@H](N)CCCCNC(=O)CC[C@@H](C(=O)N[C@@H](CCCNC(=N)N)C(=O)c2nc3ccccc3s2)NC1=O`
11.5 nM

* * *

# test_system: KLK5 (Homo sapiens, UniProt Q9Y337)
# Sequence (Q9Y337 23-293): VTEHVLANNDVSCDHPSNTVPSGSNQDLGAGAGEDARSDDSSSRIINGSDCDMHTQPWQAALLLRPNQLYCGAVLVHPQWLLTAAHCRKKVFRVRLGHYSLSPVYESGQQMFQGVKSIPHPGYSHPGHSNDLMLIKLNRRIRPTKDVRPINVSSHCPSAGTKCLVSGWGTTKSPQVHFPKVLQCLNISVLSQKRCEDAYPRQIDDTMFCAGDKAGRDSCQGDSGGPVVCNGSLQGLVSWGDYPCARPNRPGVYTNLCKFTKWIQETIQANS
Hi there, I'd appreciate the recorded IC50 for every entry that follows.
I'd appreciate it if you included the unit after the number.

Some compounds with known IC50 results, for comparison:
- CC(=O)N[C@H]1Cc2ccc(cc2)OC/C=C\C[C@@H](C(=O)N[C@@H](CCCNC(=N)N)C(=O)c2nc3ccccc3s2)NC(=O)[C@H](CC(C)C)NC1=O: 1.83 µM
- CC(=O)N[C@H]1Cc2ccc(cc2)OCCCC[C@@H](C(=O)N[C@@H](CCCNC(=N)N)C(=O)c2nc3ccccc3s2)NC(=O)[C@H](CC(C)C)NC1=O: 5.23 µM

Now for the compound whose IC50 we want.
What does the data say about its IC50? Entry: `CC(=O)N[C@H]1Cc2cn(nn2)CCCC[C@H](C(=O)N[C@@H](CCCNC(=N)N)C(=O)c2nc3ccccc3s2)NC(=O)[C@H](CC(C)C)NC1=O`
9.39 µM

* * *

# test_system: matriptase (Homo sapiens)
# Construct: purchased R&D Systems 3946-SE-010
# test_protocol: Fluorescent kinetic enzyme assay of matriptase activity (Boc-QAR-AMC)
# Assay type: biochemical
# recorded_conditions: Table 2; read-out: Matriptase (IC50 nM)
fulfilled if IC50 is below 70 nM. not fulfilled if not; exact matches included in not fulfilled.

// below: answered compounds
* CC(=O)N[C@H]1Cc2ccc(cc2)OC/C=C\CNC(=O)C[C@@H](C(=O)N[C@H](CCCNC(=N)N)C(=O)c2nc3ccccc3s2)NC(=O)[C@H](CC(C)C)NC1=O [VD4054A] | not fulfilled
* CC(=O)N[C@H]1Cc2ccc(cc2)OCCCC[C@@H](C(=O)N[C@H](CCCNC(=N)N)C(=O)c2nc3ccccc3s2)NC(=O)[C@H](Cc2ccccc2)NC1=O [VD4111A] | not fulfilled

Is IC50 of CC(=O)N[C@H]1CC(=O)NCCCC[C@@H](C(=O)N[C@@H](CCCNC(=N)N)C(=O)c2nc3ccccc3s2)NC(=O)[C@H](Cc2ccccc2)NC1=O [VD3112] strictly below 70 nM?
fulfilled

Is IC50 of CC(=O)N[C@H]1Cc2ccc(cc2)OC/C=C\CNC(=O)C[C@@H](C(=O)N[C@@H](CCCNC(=N)N)C(=O)c2nc3ccccc3s2)NC(=O)[C@H](CC(C)C)NC1=O [VD4054] strictly below 70 nM?
not fulfilled

Is IC50 of CC(=O)N[C@H]1Cc2ccc(cc2)OC/C=C\C[C@@H](C(=O)NC(CCCNC(=N)N)C(=O)c2nc3ccccc3s2)NC(=O)[C@H](CC(C)C)NC1=O (some centres unmarked) [VD4010A] strictly below 70 nM?
fulfilled

* * *

# test_system: matriptase (Homo sapiens)
# Construct: purchased R&D Systems 3946-SE-010
# test_protocol: Fluorescent kinetic enzyme assay of matriptase activity (Boc-QAR-AMC)
# Type: biochemical
# recorded_conditions: Table 2; read-out: Matriptase (IC50 nM)
Hi there, I'd appreciate the recorded log10 of IC50 for every entry that follows.
Scale: decimal log of IC50, IC50 in nM.

- CC(=O)N[C@H]1CC(=O)N(C)CCCC[C@@H](C(=O)N[C@@H](CCCNC(=N)N)C(=O)c2nc3ccccc3s2)NC(=O)[C@H](CC(C)C)NC1=O [VD4192B]: 0.04
- CC(=O)N[C@H]1CCCCNC(=O)CCC(C(=O)N[C@H](CCCNC(=N)N)C(=O)c2nc3ccccc3s2)NC(=O)[C@H](CCCNC(=N)N)NC1=O (some centres unmarked) [VD2109A]: -0.72

Hi there! I need log10 of IC50 for each item below, if you can.
1. CC(=O)N[C@H]1CC(=O)NCCCC[C@@H](C(=O)N[C@@H](CCCNC(=N)N)C(=O)c2nc3ccccc3s2)NC(=O)[C@H](C(C)C)NC1=O
2. CC(=O)N[C@H]1CCC(=O)NCCCC[C@@H](C(=O)N[C@@H](CCCNC(=N)N)C(=O)c2nc3ccccc3s2)NC(=O)[C@H](CC(C)C)NC1=O
3. CC(=O)N[C@H]1CC(=O)NCCCC[C@@H](C(=O)N[C@@H](CCCNC(=N)N)C(=O)c2nc3ccccc3s2)NC(=O)CNC1=O

1: 0.51; 2: 0.49; 3: 0.80

* * *

Hi there, I'd appreciate the recorded IC50 for every entry that follows.
# test_system: recombinant thrombin (Homo sapiens)
# test_protocol: Chromogenic kinetic enzyme assay of thrombin (S2238)
# Assay type: biochemical
# recorded_conditions: Table 2; chromogenic assay; read-out: Thrombin* (IC50 nM)
Starred links: 1 amine or outer side, 2 acyl side, 3 side chain; linkers in the order of their positions; H or OH if unused. Positions of bridges follow the written chain, without caps; N, C: chain ends. Non-standard residues stand in square brackets, D forms with d. Residues, ends and D or L forms follow the SMILES beside them. X6 = N=C(N)NCCC[C@H](N[*:1])C(=O)c1nc2ccc(C(=O)[*:2])cc2s1

Some compounds with known IC50 results, for comparison:
* CSCCC[C@H](NC(C)=O)C(=O)N[C@@H](CCC(N)=O)C(=O)N[C@@H](Cc1ccccc1)C(=O)N[C@@H](CCCNC(=N)N)C(=O)c1nc2ccccc2s1 [MM3130, Ac-MQFR-kbt] | > 20000 nM
* CC(=O)N[C@H]1CC(=O)NCCCC[C@@H](C(=O)N[C@@H](CCCNC(=N)N)C(=O)c2nc3ccccc3s2)NC(=O)[C@H](Cc2ccccc2)NC1=O [VD3112] | 1090 nM
* CC(=O)N[C@H]1CC(=O)N(C)CCCC[C@@H](C(=O)N[C@@H](CCCNC(=N)N)C(=O)c2nc3ccccc3s2)NC(=O)[C@H](CC(C)C)NC1=O [VD4192C2] | > 20000 nM
* CC(=O)N[C@H]1CC(=O)N(C)CCCC[C@@H](C(=O)N[C@@H](CCCNC(=N)N)C(=O)c2nc3ccccc3s2)NC(=O)[C@H](CC(C)C)NC1=O [VD4192C1] | > 20000 nM
* CC(=O)N[C@H]1CC(=O)NCCCC[C@@H](C(=O)N[C@@H](CCCNC(=N)N)C(=O)c2nc3ccccc3s2)NC(=O)[C@H](CC(N)=O)NC1=O [VD3166] | > 20000 nM
* CC(=O)N[C@H]1CC(=O)NCCCC[C@@H](C(=O)N[C@@H](CCCNC(=N)N)C(=O)c2nc3ccccc3s2)NC(=O)[C@H]([C@H](C)O)NC1=O [VD3157] | > 20000 nM

Hi there! I need IC50 for each item below, if you can.
1. CC(=O)N[C@H]1CC(=O)NCCCC[C@@H](C(=O)N[C@@H](CCCNC(=N)N)C(=O)c2nc3ccccc3s2)NC(=O)[C@H](CC(C)C)NC1=O [VD2173]
2. CC(=O)N[C@H]1CC(=O)NCCCC[C@@H](C(=O)N[C@@H](CCCNC(=N)N)C(=O)c2nc3ccccc3s2)NC(=O)[C@H](C(C)C)NC1=O [VD3167]

1: 699 nM; 2: > 20000 nM

Hi there! I need IC50 for each item below, if you can.
1. CC(=O)N[C@H]1CC(=O)NCCCC[C@@H](C(=O)N[C@@H](CCCNC(=N)N)C(=O)c2nc3ccccc3s2)NC(=O)[C@H](Cc2ccc(O)cc2)NC1=O [VD3158]
2. CC(=O)N[C@H]1CC(=O)NCCCC[C@@H](C(=O)N[C@@H](CCCNC(=N)N)C(=O)c2nc3ccc(C(=O)N[C@@H](C(N)=O)C(C)C)cc3s2)NC(=O)[C@H](CC(C)C)NC1=O [VD3056] (Ac-DLK[X6][dV]-NH2; lactam 1-3)
3. CC(=O)N[C@@H](CCC(N)=O)C(=O)N[C@@H](Cc1ccccc1)C(=O)NC(CCCNC(=N)N)C(=O)c1nc2ccccc2s1 (some centres unmarked) [MM3144, Ac-QFR-kbt]

["> 20000 nM", "33.9 nM", "> 20000 nM"]
